These data points were gathered from the supplement of paper PMC3334620.

Below is a list of entries, each paired with its recorded PBM E-score value.
Target: Zap1 (UniProt P47043)
Sequence: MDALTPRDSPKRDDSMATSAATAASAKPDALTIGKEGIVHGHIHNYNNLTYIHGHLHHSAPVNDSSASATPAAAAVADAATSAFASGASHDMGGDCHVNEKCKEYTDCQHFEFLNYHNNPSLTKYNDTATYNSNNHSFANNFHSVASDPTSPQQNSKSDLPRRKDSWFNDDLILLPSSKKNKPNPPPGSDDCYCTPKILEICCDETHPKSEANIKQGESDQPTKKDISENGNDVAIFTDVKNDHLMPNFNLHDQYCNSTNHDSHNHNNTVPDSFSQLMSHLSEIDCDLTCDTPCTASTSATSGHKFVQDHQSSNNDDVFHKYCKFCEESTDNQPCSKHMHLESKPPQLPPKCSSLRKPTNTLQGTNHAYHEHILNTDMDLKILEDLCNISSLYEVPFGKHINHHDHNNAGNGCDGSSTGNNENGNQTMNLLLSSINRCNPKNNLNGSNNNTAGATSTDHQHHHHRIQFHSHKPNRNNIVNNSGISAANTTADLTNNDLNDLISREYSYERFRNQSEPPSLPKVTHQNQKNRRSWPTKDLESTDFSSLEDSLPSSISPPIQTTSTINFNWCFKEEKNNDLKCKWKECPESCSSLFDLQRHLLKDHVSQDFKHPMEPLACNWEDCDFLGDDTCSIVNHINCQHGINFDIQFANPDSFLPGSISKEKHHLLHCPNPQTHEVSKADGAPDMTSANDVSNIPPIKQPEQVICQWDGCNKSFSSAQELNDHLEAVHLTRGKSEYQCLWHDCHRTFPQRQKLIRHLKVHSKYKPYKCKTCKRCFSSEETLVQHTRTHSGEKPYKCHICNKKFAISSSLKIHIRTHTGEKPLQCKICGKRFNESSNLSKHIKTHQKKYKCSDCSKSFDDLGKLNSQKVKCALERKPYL
Assay: PBM E-score (8-mer binding enrichment) (E-score (-0.5 to 0.5)); higher = stronger / more preferred TF binding
Conditions: protein concentration: 200 nM; construct: GST-full length
Whole data set: some 33,000 sequences, median “E-score (-0.5 to 0.5)” near -0.021, cut for the highest 2% near 0.32. The full list was thinned out, with the highest values kept by preference.

Input sequence | Measured target | PBM E-score
AGCGAATC | Zap1 (UniProt P47043) | -0.083
GACCCCAA | Zap1 (UniProt P47043) | 0.172
GCTGAGAA | Zap1 (UniProt P47043) | -0.156
ACCCTGTC | Zap1 (UniProt P47043) | 0.193
CTATGATA | Zap1 (UniProt P47043) | 0.00378
AACCCAAA | Zap1 (UniProt P47043) | 0.35
TCCATTAA | Zap1 (UniProt P47043) | 0.13
AAAAAGGG | Zap1 (UniProt P47043) | 0.243
GCTGGTCA | Zap1 (UniProt P47043) | 0.0223
ACCCTGGA | Zap1 (UniProt P47043) | 0.161
AACTACCG | Zap1 (UniProt P47043) | 0.179
CCCATTAA | Zap1 (UniProt P47043) | -0.0317
CCAGGGAC | Zap1 (UniProt P47043) | -0.163
CACCCAAA | Zap1 (UniProt P47043) | 0.255
GCTGGTTA | Zap1 (UniProt P47043) | 0.329
ACCATAAT | Zap1 (UniProt P47043) | 0.255
CACTACCA | Zap1 (UniProt P47043) | 0.22
ATGGTAGA | Zap1 (UniProt P47043) | -0.00844
ACCACAAA | Zap1 (UniProt P47043) | 0.35
AGATTGAA | Zap1 (UniProt P47043) | -0.0374
ACCCTGGG | Zap1 (UniProt P47043) | 0.376
ACCCTGAT | Zap1 (UniProt P47043) | 0.344
AAATCCTC | Zap1 (UniProt P47043) | -0.279
CACTACCC | Zap1 (UniProt P47043) | 0.367
AGCTGTCC | Zap1 (UniProt P47043) | -0.225
CTGCGCAG | Zap1 (UniProt P47043) | -0.325
GTATGATA | Zap1 (UniProt P47043) | 0.14
ACGTGTAT | Zap1 (UniProt P47043) | -0.152
ACAAAGGC | Zap1 (UniProt P47043) | 0.0392
ACCATAAA | Zap1 (UniProt P47043) | 0.384
TACCCCAA | Zap1 (UniProt P47043) | 0.363
AACTACCT | Zap1 (UniProt P47043) | 0.286
AACTTAAC | Zap1 (UniProt P47043) | 0.244
AACCCAAC | Zap1 (UniProt P47043) | 0.282
TCCATAAA | Zap1 (UniProt P47043) | 0.061
GCTGGTGA | Zap1 (UniProt P47043) | 0.0777
CCCCTGAC | Zap1 (UniProt P47043) | 0.113
AACTACCC | Zap1 (UniProt P47043) | 0.391
AACCTGTG | Zap1 (UniProt P47043) | 0.207
ACCCTGGC | Zap1 (UniProt P47043) | 0.183
AACCCAAT | Zap1 (UniProt P47043) | 0.187
CCAGCACA | Zap1 (UniProt P47043) | -0.00996
AAAAAGGA | Zap1 (UniProt P47043) | 0.15
ACAAAGAA | Zap1 (UniProt P47043) | 0.178
TTTGAAAA | Zap1 (UniProt P47043) | 0.273
GTTGAGAA | Zap1 (UniProt P47043) | -0.027

----------
Target: Zap1 (UniProt P47043)
Sequence: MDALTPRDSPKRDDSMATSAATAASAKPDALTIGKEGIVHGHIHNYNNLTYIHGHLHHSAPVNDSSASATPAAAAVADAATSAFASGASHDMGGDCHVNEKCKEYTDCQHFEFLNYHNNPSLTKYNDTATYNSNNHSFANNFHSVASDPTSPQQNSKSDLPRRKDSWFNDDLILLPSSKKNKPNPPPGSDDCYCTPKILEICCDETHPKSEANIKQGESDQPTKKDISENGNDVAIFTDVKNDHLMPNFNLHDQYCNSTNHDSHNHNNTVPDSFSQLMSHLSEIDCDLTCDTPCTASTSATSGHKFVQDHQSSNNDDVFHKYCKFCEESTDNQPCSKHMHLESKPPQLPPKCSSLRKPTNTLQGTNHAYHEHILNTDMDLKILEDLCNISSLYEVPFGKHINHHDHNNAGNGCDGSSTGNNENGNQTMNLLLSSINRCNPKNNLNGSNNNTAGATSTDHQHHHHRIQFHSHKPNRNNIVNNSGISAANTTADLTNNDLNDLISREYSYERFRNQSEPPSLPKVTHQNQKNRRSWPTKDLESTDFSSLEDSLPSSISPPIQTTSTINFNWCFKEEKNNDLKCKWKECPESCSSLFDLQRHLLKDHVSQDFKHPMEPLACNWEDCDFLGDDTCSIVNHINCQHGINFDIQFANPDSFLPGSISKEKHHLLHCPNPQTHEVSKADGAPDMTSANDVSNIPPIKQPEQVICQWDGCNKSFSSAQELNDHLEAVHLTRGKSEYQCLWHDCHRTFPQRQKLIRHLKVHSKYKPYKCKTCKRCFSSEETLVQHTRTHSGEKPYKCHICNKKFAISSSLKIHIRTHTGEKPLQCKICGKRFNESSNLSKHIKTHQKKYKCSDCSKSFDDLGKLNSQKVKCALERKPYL
Assay: PBM E-score (8-mer binding enrichment) (E-score (-0.5 to 0.5)); higher = stronger / more preferred TF binding
Settings: protein concentration: 200 nM; construct: GST-full length
Over roughly 33,000 sequences, “E-score (-0.5 to 0.5)” has its median near -0.021; the highest 2% begin near 0.32. The list comes from a sample in which the highest values are over-represented; it also holds close analogues and randomly drawn sequences.
If the reported PBM E-score equals or exceeds 0.2, assign fulfilled. If not, assign not fulfilled.

Input sequence | Measured target | Qualitative label
CGCGATGA | Zap1 (UniProt P47043) | not fulfilled
TGCGCACA | Zap1 (UniProt P47043) | not fulfilled
CCGGGTTA | Zap1 (UniProt P47043) | fulfilled
GGGGGTTA | Zap1 (UniProt P47043) | not fulfilled
AGCCTTAA | Zap1 (UniProt P47043) | not fulfilled
ACCTACAA | Zap1 (UniProt P47043) | not fulfilled
TCAGTGGA | Zap1 (UniProt P47043) | not fulfilled
GCGGGTAA | Zap1 (UniProt P47043) | not fulfilled
GCATCCAA | Zap1 (UniProt P47043) | not fulfilled
GGCCTTAA | Zap1 (UniProt P47043) | fulfilled
CGCTGATA | Zap1 (UniProt P47043) | not fulfilled
CACATAGC | Zap1 (UniProt P47043) | not fulfilled
CATCGTTC | Zap1 (UniProt P47043) | not fulfilled
ACGGGTTA | Zap1 (UniProt P47043) | fulfilled
CCGGGTTC | Zap1 (UniProt P47043) | fulfilled
CCCTACAC | Zap1 (UniProt P47043) | not fulfilled
GACCAGTA | Zap1 (UniProt P47043) | not fulfilled
CGGGGTTC | Zap1 (UniProt P47043) | not fulfilled
ATGGGGCG | Zap1 (UniProt P47043) | not fulfilled
GCGGGTTA | Zap1 (UniProt P47043) | fulfilled
AACCTTAG | Zap1 (UniProt P47043) | fulfilled
ACGGGTTG | Zap1 (UniProt P47043) | not fulfilled
